Tested on: primary CLL cells (CLL PBMC)
MEASUREMENT NOTES: Primary CLL cells apoptosis, viability, MCL-1/BCL-2 (flow cytometry)
Assay type: cell-based, human
CONDITIONS USED: Homo sapiens, CLL cell; 48 hours incubation; read-out: IC50, absolute number of viable CLL PBMC
Description: The MEC-1 cell line was obtained from the DSMZ (Braunschweig, Germany) and was cultured in RPMI (10% fetal bovine serum). A LDC526 stock solution was prepared with DMSO, diluted and added to the cultures to reach the specified concentrations. […] Apoptosis and cell death were determined by using Annexin V (BD Biosciences, Heidelberg, Germany) and 4′,6-Diamidin-2-phenylindol (DAPI, Sigma-Aldrich) staining. […] Data were analyzed with GraphPad Prism 7 software. […]
MEASURED PARAMETER: pIC50
pIC50 here is simply -log10 of the concentration when that concentration is written in mol/L.

Query: For the compound COc1cc(F)ccc1-c1ncnc(Nc2cccc(CS(N)(=O)=O)c2)n1 , give its measured pIC50 value.
Reply: 6.55
